test system: EKVX NSCLC; assay: NCI tumour cell line growth inhibition, 48 h
Provide the reported TGI of each item.

Qu. Please look up its TGI: O=C(O)CCC(C(=O)O)N1C(=O)c2ccccc2C1=O (stereo not given)
Ans. > 100 µM

Qu. Quick one: TGI for O=C(Nc1ccc(Cl)cc1)c1cccc([N+](=O)[O-])c1O ?
Ans. 14.8 µM

Qu. Any idea what TGI was measured for c1nncn1C12C3C4C5C3C1C5C42 (stereo not given) ?
Ans. > 100 µM

Qu. Query (compound): OC(C1=C/C(=C\c2ccncc2)c2ccccc21)c1ccncc1 (stereo not given) ; field requested: TGI
Ans. 41.5 µM

Qu. Returns the measured TGI for the input compound. Input: COC(=O)NC/C=C\c1nc(CC/C=C\C(=O)OC2CC3CC(=O)O[C@H](/C=C/CC(C)C)C[C@H]4CCC(C)C(C[C@H](OC)CC(C2)O3)O4)co1 (stereo not given in full)
Ans. 4.8 µM

Qu. Field request: TGI | item: Cc1ccc(C(=O)Cc2nc3ncccc3[nH]c2=O)cc1
Ans. > 100 µM

Qu. Entry CCN1C(=O)N(CC)C2C1NN=c1s/c(=C3\C(=O)N(CC(C)C)c4ccccc43)c(=O)n12 (stereo not given) has what TGI?
Ans. > 100 µM

Qu. Given the entry C=CC[C@H]1C[C@@]2(C)OC[C@H](C(C)C)N2C1=O , report its measured TGI.
Ans. > 100 µM

Qu. # get_value(readout='TGI', item= c1ccc2[nH]c(SSc3nc4ncncc4[nH]3)nc2c1 )
Ans. > 100 µM

Qu. Would you kindly share the measured TGI for N#CC1=C(N)OC2=C(COc3ccc(F)cc32)C1c1ccc(Cl)cc1 (stereo not given) ?
Ans. > 100 µM

---

system: UO-31 renal; assay: NCI tumour cell line growth inhibition, 48 h
READOUT: TGI (µM)
Answer in µM, number only, no unit symbol.

Qu. Which TGI is listed for COC(=O)c1c(O)ccc2c1c1c(n2Cc2ccc(OC)cc2)C(=O)c2ccccc2C1=O ?
Ans. 29.2

Qu. Quick one: TGI for Nc1ccc(C(=O)c2ccc(N)c(Br)c2)cc1Br ?
Ans. 34

Qu. I would be grateful if you could share the reported TGI for COC(=O)c1c(C)ccc2c(O)c3c(cc12)C(=O)c1c2c(cc(O)c1C3=O)C1(C)OC(C)(O2)C(O)C(N(C)C)C1O (centres undefined) .
Ans. 9.27

Qu. // lookup TGI for Cn1ccc2c(NCCN)c3c(c(NCCN)c21)C(=O)c1ccccc1C3=O
Ans. 5.76

---

system: U251 CNS; experiment: NCI tumour cell line growth inhibition, 48 h
READOUT: TGI (µM)
The response must be a number in µM with no trailing unit.

Qu. May I ask what TGI has been recorded for COc1cc2c(c(OC)c1OC)-c1ccc(SC)c(=O)cc1[C@@H](NC(=O)c1ccc(OC(C)=O)cc1)CC2 ?
Ans. 0.0544

Qu. So what's the measured TGI for this one? Cc1ccc(S(=O)(=O)N(CC(O)c2ccccc2)c2ccccc2F)cc1 (configuration not stated)
Ans. 36.7

Qu. # input molecule: Cc1c(C)c2c(c(N)c1C#N)C(=O)N(OS(=O)(=O)c1ccccc1)C2=O ; wanted: its TGI
Ans. 49.5

Qu. What does the data say about its TGI? Entry: CC(=O)c1cc2c(s1)C(=O)c1scc(C(C)=O)c1C2=O
Ans. 0.628

---

system: T-47D breast; assay: NCI tumour cell line growth inhibition, 48 h
Would you mind telling me the reported TGI of each entry?

Qu. What value of TGI has been reported for the following molecule? CCn1nc(-c2ccccc2)c2c1N(C)c1ccccc1-n1c(-c3ccccc3)nnc1-2
Ans. 46.9 µM

Qu. # TGI lookup, item CC([C@H]1CCC2C3CCC4C[C@@H](NC=O)CC[C@]4(C)C3CC[C@@]21C)N(C)C (some centres not stated)
Ans. 5.94 µM

Qu. // returns reported TGI for input CCOC(O)C(F)(F)F (configuration not stated)
Ans. > 100 µM

Qu. Record request: TGI value, item N=C1c2nc3n(c2C(=O)c2nc4n(c21)CCCC4)CCCC3
Ans. > 100 µM

Qu. Report TGI for NC(Cc1ccccc1)=NCC(=O)O please.
Ans. > 100 µM

Qu. Suppose we examine the molecule COc1ccccc1C1=C2C(=O)N(C)C(c3ccccc3OC)=C2C(=O)N1C ; what TGI value has been reported?
Ans. > 100 µM

Qu. # get_value(readout='TGI', item= O=C1C(Cl)=C(Oc2ccc([N+](=O)[O-])cc2)C(=O)c2c(O)ccc(O)c21 )
Ans. > 77.7 µM

Qu. Quick check: TGI of CN(C)c1ccc(/C=N/n2c(-c3ccccc3)nc3ccccc3c2=O)cc1 ?
Ans. > 100 µM

Qu. Look up TGI: Cc1cccc(/C=N/NC(=S)N2CCCCCC2)n1
Ans. > 100 µM

Qu. Which TGI is reported for this molecule? O=C(Nc1ccc(-n2cc(-c3ccncc3)c(-c3ccc(Cl)c(O)c3)n2)cc1)Nc1cc(C(F)(F)F)cc(C(F)(F)F)c1
Ans. 8 µM

Qu. If you can, please state the reported TGI value of CC(C)(C)OC(=O)NC1CCCC1C(O)(C1=CCCC1)C1=CCCC1 (configuration not stated) .
Ans. > 100 µM

Qu. Value lookup for TGI; key = N#Cc1ccccc1NC(=O)/C(=N\NC(=O)c1ccncc1)C(c1cnc2ccc([N+](=O)[O-])cc2n1)[N+](=O)[O-] (configuration not stated)
Ans. > 100 µM

Qu. May I ask what TGI has been recorded for O=C1c2n[nH]nc2C(=O)c2n[nH]nc21 ?
Ans. > 100 µM

Qu. Which TGI reading was recorded for the molecule CC1=NC2(CCCCC2)N(Cl)C(=O)C1SC#N (configuration not stated) ?
Ans. 62.7 µM

Qu. Value lookup for TGI; key = Cc1cc(C)c(O)c(CNCCCCCCNCc2cc(C)cc(C)c2O)c1
Ans. 3.36 µM

Qu. What value of TGI has been reported for the following molecule? N#Cc1ccc(OC(=O)c2ccc(N=C(N)N)cc2)cc1
Ans. > 100 µM

Qu. Tell me the measured TGI of COc1ccc2c(c1)nc(N)c1c3cc(OC)c(OC)cc3cn21 , please.
Ans. 25.5 µM

Qu. Recorded TGI for CCN(CC)CCOc1ccc(Nc2ncc3cc(-c4ccc(O)cc4)c(=O)n(C)c3n2)cc1 , please?
Ans. 31.8 µM

Qu. Which TGI is reported for this molecule? O=C(CCCC1Cc2ccccc2C1=O)c1ccccc1 (configuration not stated)
Ans. > 100 µM

Qu. Could you share which TGI value was measured for O=S(=O)(O)c1ccc2c(N=Nc3ccccc3)c(O)c(S(=O)(=O)O)cc2c1 ?
Ans. > 100 µM

Qu. Can you look up the measured TGI of c1ccc2[nH]c(SSc3nc4ncncc4[nH]3)nc2c1 for me?
Ans. 98.9 µM

Qu. What value of TGI has been recorded for this entry: COc1ccc2c(c1)C1Oc3ccccc3CC1(O)CO2 (configuration not stated)
Ans. > 100 µM

---

system: SF-539 CNS; assay: NCI tumour cell line growth inhibition, 48 h
READOUT: TGI (µM)
// units = µM; emit number, no label

Qu. Entry N=C1c2nc3n(c2C(=O)c2nc4n(c21)CCCC4)CCCC3 has what TGI?
Ans. 5.2

Qu. // TGI lookup, key: CCCN=C1Nc2ccccc2[C@@H]2N(C)c3ccccc3C(C)C[C@]12C (some centres undefined)
Ans. 30.5

Qu. Could you tell me which TGI is on file for O=c1[nH]nc(Cc2ccccc2)n1/N=C/c1ccc([N+](=O)[O-])o1 ?
Ans. 8.94

Qu. If you can, please state the reported TGI value of O=C(c1cc(F)c(Cl)cc1Cl)N1N=C(c2ccccc2)CC1(O)c1ccccc1 (centres undefined) .
Ans. 30.2

Qu. Return reported TGI; argument: CSc1nc2c(c(=O)n1C)N=C(c1ccc(Cl)cc1)CC(c1ccccc1)N2 (centres undefined)
Ans. 31.7

Qu. TGI lookup needed for Cn1ccc2c(NCCN)c3c(c(NCCN)c21)C(=O)c1ccccc1C3=O , thanks.
Ans. 1.55

Qu. Which TGI value belongs to O=c1c2ncn(C3CCCCO3)c2n(-c2ccccc2)c(=S)n1-c1ccccc1 (centres undefined) ?
Ans. 32.4

---

test system: UACC-62 melanoma; experiment: NCI tumour cell line growth inhibition, 48 h
READOUT: TGI

Qu. Give the measured TGI of CCCN=C1Nc2ccccc2[C@@H]2N(C)c3ccccc3C(C)C[C@]12C (stereo partly specified) .
Ans. 33.2 µM

Qu. Find the recorded TGI belonging to COC1/C(=C\C(=O)OC(C)(C)C)c2ccccc2N1C(C)=O (stereo unspecified) and report it.
Ans. > 100 µM

Qu. If you can, please state the reported TGI value of CC1(C)CC(=O)C2=C(C1)NC(SCC(=O)O)=C(C#N)C2c1ccc(Br)cc1 (stereo unspecified) .
Ans. > 100 µM

Qu. Query: TGI; subject: O=C(Nc1ccc(Cl)cc1)c1cccc([N+](=O)[O-])c1O
Ans. 17.6 µM

Qu. Entry CN(C)CC(/C(Cc1ccccc1)=N\NC(=O)c1ccncc1)c1ccccc1 (stereo unspecified) : reported TGI = ?
Ans. > 100 µM

Qu. For O=c1c2ncn(C3CCCCO3)c2n(-c2ccccc2)c(=S)n1-c1ccccc1 (stereo unspecified) , what is its reported TGI?
Ans. 56.5 µM

Qu. Look at this compound and give its reported TGI. COc1ccc(CNc2nc3cc(N)cc(N)c3nc2-c2ccccc2)cc1OC
Ans. 24.9 µM

Qu. Which TGI value belongs to Clc1ccc(-n2nnc(C3=NCCCN3)c2-c2ccccc2)cc1 ?
Ans. > 100 µM

Qu. Endpoint output: TGI of C=CCn1c(-c2ccccc2)cs/c1=N\C(P(=O)(O)O)P(=O)(O)O . Value?
Ans. > 100 µM

Qu. Recorded TGI of C1CNCCNCCNCCN1 , please.
Ans. > 100 µM

Qu. Could you tell me which TGI is on file for CC(C)(C)OC(=O)NC1CCCC1C(O)(C1=CCCC1)C1=CCCC1 (stereo unspecified) ?
Ans. > 100 µM
